Listed here are compounds together with their documented IC50.
Tested on: Plasmodium falciparum
testDescription: In vitro inhibitory activity against Plasmodium falciparum D6
Format: functional, organism-based

Past entries and their recorded results:
[
  {
    "structureAsSmiles": "O=C1c2ccccc2C(=O)c2c(O)c(O)cc(O)c21",
    "IC50": "> 1 µM"
  },
  {
    "structureAsSmiles": "COc1c(Br)c2c(c(OC)c1OC)C(=O)c1c(Br)c(OC)c(OC)c(OC)c1C2=O",
    "IC50": "≥ 5 µM"
  },
  {
    "structureAsSmiles": "O=C1c2ccc(O)cc2C(=O)c2ccc(O)cc21",
    "IC50": "> 1 µM"
  },
  {
    "structureAsSmiles": "COc1cc2c(cc1OC)C(=O)c1cc(OC)c(OC)cc1C2=O",
    "IC50": "≥ 5 µM"
  },
  {
    "structureAsSmiles": "COc1cc2c(c(OC)c1OC)C(=O)c1cc(OC)c(OC)c(OC)c1C2=O",
    "IC50": "≥ 5 µM"
  },
  {
    "structureAsSmiles": "COc1c(OC)c(OC)c2c(c1OC)C(=O)c1c(OC)c(OC)c(OC)c(OC)c1C2=O",
    "IC50": "≥ 5 µM"
  }
]

Could you now look at the following compound, please?
Per the record, O=C1c2cccc(O)c2C(=O)c2cccc(O)c21 has IC50 of > 1 µM
